Entry source: patent US12448383B2

Tested on: Caco-2 cells (clone C2BBe1)
Assay: CACO-2 permeability
Format: in vitro ADME
Set-up: unit not given here
Conditions: basolateral to apical
Procedure: Pre-plated Caco-2 cells (clone C2BBel) were obtained from Sigma-Aldrich, Inc. (Atlanta, GA). Cell monolayers were grown to confluence on collagen-coated, microporous, polycarbonate membranes in 24-well transwell plates for 21 days. […] After an initial equilibration with transport buffer, TEER values were read to test membrane integrity. […] Samples were analyzed by LC-MS/MS.
This listing pairs compounds with measured DM Caco2 B to A.
quantity: DM Caco2 B to A

# compound, target_entity, test_value
records = [
    ("N#C[C@@]1(c2ccc3c(N)ncnn23)O[C@H](COC(=O)OC(CF)CF)[C@@H](O)[C@H]1O", "Caco-2 cells (clone C2BBe1)", 2.19),
    ("N#C[C@@]1(c2ccc3c(N)ncnn23)O[C@H](COC(=O)OC2CCOCC2)[C@@H](O)[C@H]1O", "Caco-2 cells (clone C2BBe1)", 2.76),
    ("N#C[C@@]1(c2ccc3c(N)ncnn23)O[C@H](CO)[C@@H](O)[C@H]1O [Reference Compound A, reference compound]", "Caco-2 cells (clone C2BBe1)", 1.52),
    ("CC1(C)CC(OC(=O)OC[C@H]2O[C@@](C#N)(c3ccc4c(N)ncnn34)[C@H](O)[C@@H]2O)C1", "Caco-2 cells (clone C2BBe1)", 13),
    ("N#C[C@@]1(c2ccc3c(N)ncnn23)O[C@H](COC(=O)OC2CC3(CCC3)C2)[C@@H](O)[C@H]1O", "Caco-2 cells (clone C2BBe1)", 12.29),
    ("CC(C)(OC(=O)OC[C@H]1O[C@@](C#N)(c2ccc3c(N)ncnn23)[C@H](O)[C@@H]1O)C(F)F", "Caco-2 cells (clone C2BBe1)", 12.17),
    ("CC1=CCC(OC(=O)OC[C@H]2O[C@@](C#N)(c3ccc4c(N)ncnn34)[C@H](O)[C@@H]2O)(C(C)C)CC1 (stereo partly drawn)", "Caco-2 cells (clone C2BBe1)", 9.88),
    ("CCOC(=O)OC[C@H]1O[C@@](C#N)(c2ccc3c(N)ncnn23)[C@H](OC(=O)OCC)[C@@H]1OC(=O)OCC", "Caco-2 cells (clone C2BBe1)", 9.5),
    ("COC(=O)OC[C@H]1O[C@@](C#N)(c2ccc3c(N)ncnn23)[C@H](OC(C)=O)[C@@H]1OC(C)=O", "Caco-2 cells (clone C2BBe1)", 5.69),
    ("CC(C)(OC(=O)OC[C@H]1O[C@@](C#N)(c2ccc3c(N)ncnn23)[C@H](O)[C@@H]1O)c1cccnc1", "Caco-2 cells (clone C2BBe1)", 2.47),
    ("CCC(C)(C)OC(=O)OC[C@H]1O[C@@](C#N)(c2ccc3c(N)ncnn23)[C@H](O)[C@@H]1O", "Caco-2 cells (clone C2BBe1)", 6.91),
    ("CCOC(=O)OC[C@H]1O[C@@](C#N)(c2ccc3c(N)ncnn23)[C@H](OC(C)=O)[C@@H]1OC(C)=O", "Caco-2 cells (clone C2BBe1)", 6.635),
    ("CC(C)(OC(=O)OC[C@H]1O[C@@](C#N)(c2ccc3c(N)ncnn23)[C@H](O)[C@@H]1O)c1ccncc1", "Caco-2 cells (clone C2BBe1)", 3.48),
    ("CC(C)[C@@H]1CC[C@@H](C)C[C@H]1OC(=O)OC[C@H]1O[C@@](C#N)(c2ccc3c(N)ncnn23)[C@H](O)[C@@H]1O", "Caco-2 cells (clone C2BBe1)", 25.42),
    ("N#C[C@@]1(c2ccc3c(N)ncnn23)O[C@H](COC(=O)OCC2CCC2)[C@@H](O)[C@H]1O", "Caco-2 cells (clone C2BBe1)", 10.58),
    ("CC(=O)OC[C@H]1O[C@@](C#N)(c2ccc3c(N)ncnn23)[C@H](OC(C)=O)[C@@H]1OC(C)=O [3rd Reference Ester Compound]", "Caco-2 cells (clone C2BBe1)", 8.91),
    ("N#C[C@@]1(c2ccc3c(N)ncnn23)O[C@H](COC(=O)OCC2(C(F)(F)F)CC2)[C@@H](O)[C@H]1O", "Caco-2 cells (clone C2BBe1)", 8.35),
    ("CC(C)OC(=O)[C@H]([C@@H](C)OC(=O)OC[C@H]1O[C@@](C#N)(c2ccc3c(N)ncnn23)[C@H](O)[C@@H]1O)N(C)C", "Caco-2 cells (clone C2BBe1)", 8.475),
    ("CCOC(=O)OC[C@H]1O[C@@](C#N)(c2ccc3c(N)ncnn23)[C@H](O)[C@@H]1O", "Caco-2 cells (clone C2BBe1)", 2.77),
    ("CN1[C@@H]2CC[C@H]1C[C@@H](OC(=O)OC[C@H]1O[C@@](C#N)(c3ccc4c(N)ncnn34)[C@H](O)[C@@H]1O)C2", "Caco-2 cells (clone C2BBe1)", 0.13),
    ("N#C[C@@]1(c2ccc3c(N)ncnn23)O[C@H](COC(=O)OC23CC4CC(CC(C4)C2)C3)[C@@H](O)[C@H]1O", "Caco-2 cells (clone C2BBe1)", 14.67),
    ("N#C[C@@]1(c2ccc3c(N)ncnn23)O[C@H](COC(=O)OCCCC(=O)O)[C@@H](O)[C@H]1O", "Caco-2 cells (clone C2BBe1)", 0.08),
    ("CC(C)OC(=O)OC[C@H]1O[C@@](C#N)(c2ccc3c(N)ncnn23)[C@H](OC(=O)C(C)C)[C@@H]1OC(=O)C(C)C", "Caco-2 cells (clone C2BBe1)", 17.7),
    ("N#C[C@@]1(c2ccc3c(N)ncnn23)O[C@H](COC(=O)OCC2CC(F)(F)C2)[C@@H](O)[C@H]1O", "Caco-2 cells (clone C2BBe1)", 8.32),
    ("CC1(C)CC(COC(=O)OC[C@H]2O[C@@](C#N)(c3ccc4c(N)ncnn34)[C@H](O)[C@@H]2O)C1", "Caco-2 cells (clone C2BBe1)", 10.53),
    ("CC(=O)O[C@H]1[C@@H](OC(C)=O)[C@](C#N)(c2ccc3c(N)ncnn23)O[C@@H]1COC(=O)OC(C)C", "Caco-2 cells (clone C2BBe1)", 7.23),
    ("N#C[C@@]1(c2ccc3c(N)ncnn23)O[C@H](COC(=O)OCC23CC(C2)C3)[C@@H](O)[C@H]1O", "Caco-2 cells (clone C2BBe1)", 10.69),
]

---

tested on: Caco-2 cells (clone C2BBe1); assay: CACO-2 permeability; assay type: in vitro ADME; parameters: unit not given here; settings: apical to basolateral; donor pH 6.5, receiver pH 7.4
quantity: DM Caco2 A to B

# molecule, quantity, test_value
rows = [
    ("C=CCOC(=O)OC[C@H]1O[C@@](C#N)(c2ccc3c(N)ncnn23)[C@H](O)[C@@H]1O", "DM Caco2 A to B", 0.39),
    ("CC(C)COC(=O)OC[C@H]1O[C@@](C#N)(c2ccc3c(N)ncnn23)[C@H](O)[C@@H]1O", "DM Caco2 A to B", 0.275),
    ("CC1=CCC(OC(=O)OC[C@H]2O[C@@](C#N)(c3ccc4c(N)ncnn34)[C@H](O)[C@@H]2O)(C(C)C)CC1 (stereo partly drawn)", "DM Caco2 A to B", 3.25),
    ("CC(C)COC(=O)Nc1ncnn2c([C@]3(C#N)O[C@H](COC(=O)OCC(C)C)[C@@H](O)[C@H]3O)ccc12", "DM Caco2 A to B", 1.17),
    ("N#C[C@@]1(c2ccc3c(N)ncnn23)O[C@H](COC(=O)OCC2(C(F)(F)F)CC2)[C@@H](O)[C@H]1O", "DM Caco2 A to B", 0.77),
    ("N#C[C@@]1(c2ccc3c(N)ncnn23)O[C@H](COC(=O)OCCCCCC(=O)O)[C@@H](O)[C@H]1O", "DM Caco2 A to B", 0.04),
    ("CC1(COC(=O)OC[C@H]2O[C@@](C#N)(c3ccc4c(N)ncnn34)[C@H](O)[C@@H]2O)CCCC1", "DM Caco2 A to B", 3.18),
    ("CC1(C)CC(OC(=O)OC[C@H]2O[C@@](C#N)(c3ccc4c(N)ncnn34)[C@H](O)[C@@H]2O)C1", "DM Caco2 A to B", 0.68),
    ("COC(=O)[C@H]([C@@H](C)OC(=O)OC[C@H]1O[C@@](C#N)(c2ccc3c(N)ncnn23)[C@H](O)[C@@H]1O)N(C)C", "DM Caco2 A to B", 0.2),
    ("Cc1ccc(C(C)C)c(OC(=O)OC[C@H]2O[C@@](C#N)(c3ccc4c(N)ncnn34)[C@H](O)[C@@H]2O)c1", "DM Caco2 A to B", 2.73),
    ("N#C[C@@]1(c2ccc3c(N)ncnn23)O[C@H](COC(=O)OC2CC(F)(F)C2)[C@@H](O)[C@H]1O", "DM Caco2 A to B", 0.48),
    ("CCCCCCCCCCCCCCCCCCOC(=O)OC[C@H]1O[C@@](C#N)(c2ccc3c(N)ncnn23)[C@H](O)[C@@H]1O", "DM Caco2 A to B", 0.01),
    ("CC(C)OC(=O)[C@H](CCOC(=O)OC[C@H]1O[C@@](C#N)(c2ccc3c(N)ncnn23)[C@H](O)[C@@H]1O)N(C)C", "DM Caco2 A to B", 0.06),
    ("CC(C)(OC(=O)OC[C@H]1O[C@@](C#N)(c2ccc3c(N)ncnn23)[C@H](O)[C@@H]1O)C(F)F", "DM Caco2 A to B", 2.13),
    ("CC1(OC(=O)OC[C@H]2O[C@@](C#N)(c3ccc4c(N)ncnn34)[C@H](O)[C@@H]2O)CCCC1", "DM Caco2 A to B", 0.35),
    ("N#CC12CC(COC(=O)OC[C@H]3O[C@@](C#N)(c4ccc5c(N)ncnn45)[C@H](O)[C@@H]3O)(C1)C2", "DM Caco2 A to B", 0.08),
    ("CCOC(=O)[C@H](C)OC(=O)OC[C@H]1O[C@@](C#N)(c2ccc3c(N)ncnn23)[C@H](O)[C@@H]1O", "DM Caco2 A to B", 0.04),
    ("CC1(OC(=O)OC[C@H]2O[C@@](C#N)(c3ccc4c(N)ncnn34)[C@H](O)[C@@H]2O)CCCCC1", "DM Caco2 A to B", 1.68),
    ("N#C[C@@]1(c2ccc3c(N)ncnn23)O[C@H](COC(=O)OCC23CCC(CC2)C3)[C@@H](O)[C@H]1O", "DM Caco2 A to B", 6.95),
    ("COC(=O)O[C@H]1[C@@H](OC(=O)OC)[C@](C#N)(c2ccc3c(N)ncnn23)O[C@@H]1COC(=O)OC(C)C", "DM Caco2 A to B", 3.87),
    ("COc1ccc(CCOC(=O)OC[C@H]2O[C@@](C#N)(c3ccc4c(N)ncnn34)[C@H](O)[C@@H]2O)cc1", "DM Caco2 A to B", 2.53),
    ("N#C[C@@]1(c2ccc3c(N)ncnn23)O[C@H](COC(=O)OCCN2CCOCC2)[C@@H](O)[C@H]1O", "DM Caco2 A to B", 0.07),
    ("C[C@@H](OC(=O)OC[C@H]1O[C@@](C#N)(c2ccc3c(N)ncnn23)[C@H](O)[C@@H]1O)c1ccccc1", "DM Caco2 A to B", 1.79),
    ("N#C[C@@]1(c2ccc3c(N)ncnn23)O[C@H](COC(=O)OC2CC2)[C@@H](O)[C@H]1O", "DM Caco2 A to B", 0.39),
    ("CC(=O)OC[C@H]1O[C@@](C#N)(c2ccc3c(N)ncnn23)[C@H](OC(C)=O)[C@@H]1OC(C)=O [3rd Reference Ester Compound]", "DM Caco2 A to B", 5.07),
    ("CC(C)OC(=O)OC[C@H]1O[C@@](C#N)(c2ccc3c(N)ncnn23)[C@H](OC(=O)C(C)C)[C@@H]1OC(=O)C(C)C", "DM Caco2 A to B", 11.61),
    ("N#C[C@@]1(c2ccc3c(N)ncnn23)O[C@H](COC(=O)OC(CF)CF)[C@@H](O)[C@H]1O", "DM Caco2 A to B", 0.13),
]
